Source: patent US20250270315A1

Recorded pKd for the following binders
target: Human SIRPα v1 (antigen of the Octet and Biacore affinity measurements) (human, UniProt P78324 31-370, limits assumed); experiment: BLI (Octet), 1:1 binding model
Sequence (P78324 31-370 limits assumed): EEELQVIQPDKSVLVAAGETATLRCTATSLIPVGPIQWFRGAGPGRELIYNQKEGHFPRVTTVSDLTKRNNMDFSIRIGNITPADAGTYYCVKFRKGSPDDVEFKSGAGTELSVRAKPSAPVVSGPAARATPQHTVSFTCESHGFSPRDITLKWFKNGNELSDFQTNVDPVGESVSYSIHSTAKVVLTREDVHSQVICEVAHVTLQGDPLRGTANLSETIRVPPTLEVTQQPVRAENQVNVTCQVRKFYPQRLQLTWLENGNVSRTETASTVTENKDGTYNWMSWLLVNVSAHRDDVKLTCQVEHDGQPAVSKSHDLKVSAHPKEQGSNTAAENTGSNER
Keep in mind that pKd stands for -log10 of concentration in molar terms.

For orientation, consider the following solved cases.
binder	pKd
015c (antibody, V domains shown, also called chimeric antibody 015c) VH: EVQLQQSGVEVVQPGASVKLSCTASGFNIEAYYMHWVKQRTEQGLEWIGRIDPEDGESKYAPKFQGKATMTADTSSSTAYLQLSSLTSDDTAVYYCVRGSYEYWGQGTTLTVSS VL: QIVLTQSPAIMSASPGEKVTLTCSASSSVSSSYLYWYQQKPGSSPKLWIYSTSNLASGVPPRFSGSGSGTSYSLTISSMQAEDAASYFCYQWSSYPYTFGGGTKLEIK	9.47
025c (antibody, V domains shown, also called chimeric antibody 025c; parental antibody of 025c) VH: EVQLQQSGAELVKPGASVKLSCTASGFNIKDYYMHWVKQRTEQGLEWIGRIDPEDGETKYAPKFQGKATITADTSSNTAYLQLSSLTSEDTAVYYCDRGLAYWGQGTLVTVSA VL: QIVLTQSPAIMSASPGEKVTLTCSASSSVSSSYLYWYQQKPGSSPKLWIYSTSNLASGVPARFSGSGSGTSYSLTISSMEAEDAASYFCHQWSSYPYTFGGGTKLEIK	8.61
071c (antibody, V domains shown, also called chimeric antibody 071c) VH: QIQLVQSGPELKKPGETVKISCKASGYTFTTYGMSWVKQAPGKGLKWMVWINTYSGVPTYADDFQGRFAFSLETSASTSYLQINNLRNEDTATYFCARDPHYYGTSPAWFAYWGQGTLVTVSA VL: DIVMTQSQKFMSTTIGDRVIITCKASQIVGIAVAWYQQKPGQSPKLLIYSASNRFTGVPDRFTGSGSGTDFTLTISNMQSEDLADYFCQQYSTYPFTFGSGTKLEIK	8.22

Could you now consider this next binder?
# input Quote pKd reported for 042c (antibody, V domains shown, also called chimeric antibody 042c) VH: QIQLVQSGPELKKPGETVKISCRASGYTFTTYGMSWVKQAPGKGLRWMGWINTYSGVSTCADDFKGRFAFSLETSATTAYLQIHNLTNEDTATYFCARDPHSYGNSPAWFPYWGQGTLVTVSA VL: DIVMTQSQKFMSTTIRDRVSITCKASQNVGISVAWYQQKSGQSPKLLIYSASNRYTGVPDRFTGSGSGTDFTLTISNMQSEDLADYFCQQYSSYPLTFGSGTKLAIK please.
# output 8.04
